Reported pKi values for the following molecules.
Target: Falcipain 2 (Plasmodium falciparum, UniProt Q8I6U4)
Sequence (Q8I6U4 244-484): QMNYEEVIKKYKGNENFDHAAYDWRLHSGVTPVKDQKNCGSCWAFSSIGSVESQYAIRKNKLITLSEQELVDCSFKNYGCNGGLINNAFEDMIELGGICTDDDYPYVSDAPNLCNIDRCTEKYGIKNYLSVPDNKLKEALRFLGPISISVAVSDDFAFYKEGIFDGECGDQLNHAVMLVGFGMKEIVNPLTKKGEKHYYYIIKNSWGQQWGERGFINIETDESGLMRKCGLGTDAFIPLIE
Keep in mind that pKi stands for -log10 of concentration in molar terms.

The examples below pair each entry with its known result.
- CC(C)C[C@@H](NC(=O)c1ccc2cc[nH]c2c1)C(=O)N[C@@H]1CCCN(S(=O)(=O)c2ccccn2)CC1=O (stereo in doubt): 8.15
- CC(C)C[C@@H](NC(=O)c1ccc2ccccc2c1)C(=O)N[C@@H]1CCCN(S(=O)(=O)c2ccccn2)CC1=O (single isomer, unassigned): 8.21
- CC(C)CC(NC(=O)c1ccc2c(c1)OCCCO2)C(=O)N[C@@H]1CCCN(S(=O)(=O)c2cccc[n+]2[O-])CC1=O (single isomer, unassigned): 8.15

// returns pKi for `COc1cccc2cc(C(=O)N[C@@H](CC(C)C)C(=O)N[C@H]3CCCN(S(=O)(=O)c4ccccc4F)CC3=O)oc12` with Falcipain 2 (Plasmodium falciparum, UniProt Q8I6U4); value = 8.15

// returns pKi for CC(C)C[C@@H](NC(=O)c1ccc2[nH]ccc2c1)C(=O)NC1CCCN(S(=O)(=O)c2cccc[n+]2[O-])CC1=O (single isomer, unassigned) with Falcipain 2 (Plasmodium falciparum, UniProt Q8I6U4); value = 8.21

// returns pKi for [2H]C1(NC(=O)C(CC(C)C)NC(=O)c2cc3ccccc3o2)CCCN(S(=O)(=O)c2ccccn2)C([2H])([2H])C1=O (stereo not drawn) with Falcipain 2 (Plasmodium falciparum, UniProt Q8I6U4); value = 8.19
